// data source = paper doi:10.1101/2023.10.24.563163v2

Target: KRAS^G12D (Homo sapiens, UniProt P01116, G12D)
Sequence (P01116 whole entry G12D): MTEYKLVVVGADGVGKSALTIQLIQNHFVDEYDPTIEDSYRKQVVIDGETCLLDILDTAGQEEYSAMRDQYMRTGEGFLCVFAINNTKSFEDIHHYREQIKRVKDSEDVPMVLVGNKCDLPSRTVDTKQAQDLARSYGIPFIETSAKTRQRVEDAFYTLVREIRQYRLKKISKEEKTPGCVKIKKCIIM
Assay: cell-based
Set-up: endogenous; KRAS degradation by capillary electrophoresis immunodetection
Conditions: GP2d; read-out: Dmax 24 h GP2d [%]
Measurement type: Dmax

Value lookup for Dmax; key = `C#Cc1c(F)ccc2cc(O)cc(-c3ncc4c(N5C[C@H]6CC[C@@H](C5)N6)nc(OC[C@@]56CCCN5C[C@H](F)C6)nc4c3F)c12` < 15%

====

Biological target: KRAS^G12D (Homo sapiens, UniProt P01116, G12D)
Assay: cell-based
Design: endogenous; KRAS degradation by capillary electrophoresis immunodetection
Conditions: GP5d; read-out: Dmax 24 h GP5d [%]
Measurement type: Dmax (%)
Dear colleague, please return just the value in %, with no unit written.

Example compounds with recorded Dmax:
Value lookup for Dmax; key = Cc1ncsc1-c1ccc(CNC(=O)[C@@H]2C[C@@H](O)CN2C(=O)[C@@H](NC(=O)CCCCCN2CCCN(c3nccc(-c4noc([C@@]5(C)CCCc6sc(N)c(C#N)c65)n4)n3)[C@@H](C)C2)C(C)(C)C)cc1 [compound 3] 99

Similarly, Cc1ncsc1-c1ccc(CNC(=O)[C@@H]2C[C@@H](O)CN2C(=O)[C@@H](c2cc(OCCCCN3CCCN(c4nccc(-c5noc([C@@]6(C)CCCc7sc(N)c(C#N)c76)n5)n4)[C@@H](C)C3)no2)C(C)C)cc1 [compound 4] ? 100

Similarly, Cc1ncsc1-c1ccc(CNC(=O)[C@@H]2C[C@@H](O)CN2C(=O)[C@@H](NC(=O)COCCCN2CCCN(c3nccc(-c4noc([C@@]5(C)CCCc6sc(N)c(C#N)c65)n4)n3)[C@@H](C)C2)C(C)(C)C)cc1 [compound 2] ? 100

# evaluate next
Value lookup for Dmax; key = Cc1ncsc1-c1ccc([C@H](CO)NC(=O)[C@@H]2C[C@@H](O)CN2C(=O)[C@H](C(C)C)n2cc(OCCCCN3CCCN(c4nccc(-c5noc([C@@]6(C)CCCc7sc(N)c(C#N)c76)n5)n4)[C@@H](C)C3)nn2)cc1 [compound 7, ACBI3] 99

====

Molecular target: HiBiT-KRAS^G12D (Homo sapiens, UniProt P01116, G12D)
Construct: HiBiT-tagged
Sequence (P01116 whole entry G12D): as above
Test: cell-based
Set-up: HiBiT-KRAS degradation, split nanoluciferase lytic detection
Settings: GP5d; read-out: Dmax 24 h GP5d HiBiT [%]
Method: This formula was derived from the Growth Inhibition (GI) calculation used in the National Cancer Institute’s NCI-60 high-throughput screen. […] Upon completion of cell lysis, luminescence was measured using an Envision plate reader using the Ultrasensitive Luminescence Protocol for 96-well plates. Luminescence levels were normalized by the values obtained with DMSO-treated samples and plotted as percent of DMSO control. […]
Recorded Dmax, one value per entry.
Dear colleague, please return just the value in %, with no unit written.

Example compounds with recorded Dmax:
Value lookup for Dmax; key = `Cc1ncsc1-c1ccc(CNC(=O)[C@@H]2C[C@@H](O)CN2C(=O)[C@@H](c2cc(OCCCCN3CCCN(c4nccc(-c5noc([C@@]6(C)CCCc7sc(N)c(C#N)c76)n5)n4)[C@@H](C)C3)no2)C(C)C)cc1` 94

Similarly, `Cc1ncsc1-c1ccc(CNC(=O)[C@@H]2C[C@@H](O)CN2C(=O)[C@@H](NC(=O)CCCCCN2CCCN(c3nccc(-c4noc([C@@]5(C)CCCc6sc(N)c(C#N)c65)n4)n3)[C@@H](C)C2)C(C)(C)C)cc1` ? 95

Similarly, `Cc1ncsc1-c1ccc(CNC(=O)[C@@H]2C[C@@H](O)CN2C(=O)[C@@H](NC(=O)COCCCN2CCCN(c3nccc(-c4noc([C@@]5(C)CCCc6sc(N)c(C#N)c65)n4)n3)[C@@H](C)C2)C(C)(C)C)cc1` ? 100

# evaluate next
Value lookup for Dmax; key = `Cc1ncsc1-c1ccc([C@H](CO)NC(=O)[C@@H]2C[C@@H](O)CN2C(=O)[C@H](C(C)C)n2cc(OCCCCN3CCCN(c4nccc(-c5noc([C@@]6(C)CCCc7sc(N)c(C#N)c76)n5)n4)[C@@H](C)C3)nn2)cc1` 95
